B1: 3'-5' exoribonuclease 1, residues 65 to 114; numbered along this chain, Q8IV48 (parent)
chain: VYKEIAITNGCINRMSKEELRAKLSEFKLETRGVKDVLKKRLKNYYKKQK

# Variants of: B1
# test_description: abundance fitness (aPCA) (normalised: wild type 0, dead -1); higher = more abundant; growth selection in yeast, the domain comes from the species named
# conditions_used: Homo sapiens
measurement_name: abundance fitness

>>> endpoint_value("I5N")
-0.004
>>> endpoint_value("L24C")
-0.052
>>> endpoint_value("T31I")
-0.134
>>> endpoint_value("E26P")
-0.964
>>> endpoint_value("R41D")
-1.09
>>> endpoint_value("I12Q")
-0.899
>>> endpoint_value("R21C")
-0.474
>>> endpoint_value("T31F")
0.038
>>> endpoint_value("E19C")
-0.382
>>> endpoint_value("I5L")
-0.051
>>> endpoint_value("E30G")
-0.562
>>> endpoint_value("N13V")
-0.764
>>> endpoint_value("R41H")
-1.02
>>> endpoint_value("S25I")
-0.315
>>> endpoint_value("N13F")
-0.961
